Measured IC50, listed per entry.
# target_under_test: UniProt:O75116
# Sequence (O75116 whole entry, species assumed): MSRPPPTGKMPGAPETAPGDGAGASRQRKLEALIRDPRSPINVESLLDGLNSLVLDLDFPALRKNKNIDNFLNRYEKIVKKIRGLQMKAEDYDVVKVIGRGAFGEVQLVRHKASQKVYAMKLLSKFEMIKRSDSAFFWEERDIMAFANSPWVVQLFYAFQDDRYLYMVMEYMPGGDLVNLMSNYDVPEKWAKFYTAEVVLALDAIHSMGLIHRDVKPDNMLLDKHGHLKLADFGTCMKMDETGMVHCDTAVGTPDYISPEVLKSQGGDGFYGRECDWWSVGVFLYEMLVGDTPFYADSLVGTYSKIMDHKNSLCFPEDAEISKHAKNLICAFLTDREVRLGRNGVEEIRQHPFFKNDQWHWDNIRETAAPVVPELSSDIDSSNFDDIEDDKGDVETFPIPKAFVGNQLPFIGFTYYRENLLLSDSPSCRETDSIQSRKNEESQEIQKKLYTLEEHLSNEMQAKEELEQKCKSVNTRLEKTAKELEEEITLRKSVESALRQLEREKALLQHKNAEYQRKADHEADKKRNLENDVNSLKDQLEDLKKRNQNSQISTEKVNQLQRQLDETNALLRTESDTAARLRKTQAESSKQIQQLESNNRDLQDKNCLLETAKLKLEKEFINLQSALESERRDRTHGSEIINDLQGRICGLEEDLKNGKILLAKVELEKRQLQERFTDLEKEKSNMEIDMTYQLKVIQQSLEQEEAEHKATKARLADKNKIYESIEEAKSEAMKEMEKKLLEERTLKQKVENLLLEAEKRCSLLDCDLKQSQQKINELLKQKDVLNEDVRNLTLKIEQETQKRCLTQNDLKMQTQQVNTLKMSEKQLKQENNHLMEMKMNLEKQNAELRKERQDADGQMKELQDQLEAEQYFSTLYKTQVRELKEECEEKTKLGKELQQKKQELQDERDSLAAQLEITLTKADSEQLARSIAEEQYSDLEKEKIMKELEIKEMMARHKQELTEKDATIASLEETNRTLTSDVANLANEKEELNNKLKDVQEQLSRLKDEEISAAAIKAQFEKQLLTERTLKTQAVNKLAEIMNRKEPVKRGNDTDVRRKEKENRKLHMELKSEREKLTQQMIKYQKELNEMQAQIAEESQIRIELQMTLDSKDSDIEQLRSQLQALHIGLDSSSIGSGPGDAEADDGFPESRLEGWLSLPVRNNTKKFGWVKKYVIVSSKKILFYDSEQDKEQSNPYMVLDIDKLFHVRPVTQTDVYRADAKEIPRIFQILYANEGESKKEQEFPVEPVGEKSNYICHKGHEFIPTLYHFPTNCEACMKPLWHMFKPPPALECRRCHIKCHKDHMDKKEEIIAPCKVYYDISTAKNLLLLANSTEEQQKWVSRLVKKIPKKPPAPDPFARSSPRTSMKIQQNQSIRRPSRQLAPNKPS
# run_description: ROCK2 kinase inhibition assay (LABCHIP 3000 Reader, FITC peptide substrate);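 note: rho kinase reaction read by separating phosphorylated from unphosphorylated peptide on chip, with inhibition of kinase activity computed per concentration across a dose-response series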
# measurement_context: read-out: ROCK2 Activity (ROCK2 IC50); 5 μM ATP, 1.5 μM peptide substrate, pH 7.5

Example results:
molecule | IC50
NC(=O)c1cccnc1OC1CC2(CC(NC(=O)c3nc(C(F)(F)F)n4cc(Br)ccc34)C2)C1 (stereo not shown) [Example 429] | 5 to 50 nM
NC(=O)c1cccnc1OC1CC2(CC(NC(=O)c3cc(N4CC5CCC(C4)O5)cc(C(F)(F)F)c3)C2)C1 (stereo not shown) [Example 456] | < 5 nM
CC(C)(O)COc1ccc2c(C(=O)NC3CC4(C3)CC(Oc3ncccc3C(N)=O)C4)nc(C(F)(F)F)n2c1 (stereo not shown) [Example 434] | 5 to 50 nM

Next up:
## Input Which IC50 is reported with UniProt:O75116 for this entry: CS(=O)(=O)c1cc(Br)cc(C(=O)NC2CC3(C2)CC(Oc2ncccc2C(N)=O)C3)c1 (stereo not shown) [Example 119] ?
## Output 5 to 50 nM
